- System: NCI-H322M lung
- PROCEDURE_TEXT: NCI-60 one-dose screen, 48 h (100 = growth as untreated, 0 = no growth, -100 = all killed)
- TEST_SETTINGS: 10 µM unless noted
The panel holds about 83,000 compounds, 20% with a hit somewhere; the sample as a whole holds those more often.
EXPERIMENTAL_ENDPOINT: growth (%)
Numbers only, in %.

>>> recorded_number("CC(=O)Oc1ccc(/C(=C(\\C)c2ccc(Cl)cc2)c2ccc(OCCN3CCCCC3)cc2)cc1")
84.7

Give growth for all molecules that follow.
1. O=C(CSc1nnc(-c2cnccn2)n1-c1ccccc1)c1ccc(Cl)cc1
2. COC(=O)[C@]1(C)CCC[C@]2(C)[C@H]3C[C@H]4C(C(C)C)=C[C@]3(CC[C@H]21)[C@@H]1C(=O)CC[C@H](OCCC#N)[C@@H]14
3. COc1ccc(/C=C/C(=O)c2cc3c(N)c(C(=O)Nc4cccc5ccccc45)sc3nc2C)cc1
4. O=C(O)c1cn(C2CC2)c2cc(N3CCN(Cc4ccc5ccccc5c4O)CC3)c(F)cc2c1=O

a:
95.5
106
95.8
23.4

###

- Test system: HCC-2998 colon
- PROCEDURE_TEXT: NCI-60 one-dose screen, 48 h
- TEST_SETTINGS: 10 µM unless noted
About 83,000 compounds went through this panel and 20% of them were active in at least one assay; those are over-represented in the sample as a whole. The source made the active and inactive calls. How the source made its calls: active means growth percent below 10; inactive means the rest.
Permitted responses: True (active), False (inactive)

>>> assigned_class("O=C1NC(=O)C(Cc2ccc(OCc3ccc(-c4ccc(Cl)cc4Cl)cc3)cc2)S1 (stereo not given)")
"False"
>>> assigned_class("C=CCSc1nnc(NC(=O)CCl)s1")
"False"
>>> assigned_class("COCCn1cc(-c2csc(-c3cn(C)c4ccc(Br)cc34)n2)c2cccnc21")
"False"
>>> assigned_class("[O-]/[N+](=C\\c1ccc(-n2cc(Cc3ccccc3Cc3cn(-c4ccc(/C=[N+](/[O-])c5ccccc5)cc4)nn3)nn2)cc1)c1ccccc1")
"False"
>>> assigned_class("COC12C=C/C(=C(/C(=O)OCc3ccncc3)C(=O)CCCCCCCCC3(OC)C=C/C(=C(/C(=O)OCc4ccncc4)C(=O)CCCCCCCC1)O3)O2")
"True"
>>> assigned_class("COc1ccc(C/C(C)=C(/c2ccc(OCCN(C)C)cc2)c2ccc(OC(=O)NCc3ccccc3)cc2)cc1")
"False"
>>> assigned_class("N=C(N)c1ccc(-c2ccc(-c3ccc(Cl)cc3Cl)s2)cc1")
"True"
>>> assigned_class("CCOC(=O)C/C(=N\\Nc1cc(=O)[nH]c2ccc(Br)cc12)C(=O)OCC")
"False"

q: What did this assay record as the result for Cc1cc(C(=O)Nc2ncc(Cc3cccc(C(F)(F)F)c3)s2)c2ccccc2n1 ?
a: False

q: Repeat for the following molecule: O=C1C(Cl)=C(Nc2ccc(S(=O)(=O)N3CCOCC3)cc2)C(=O)c2ccccc21
a: False

q: Repeat for the following molecule: Cc1[nH]c(=O)[nH]c(=O)c1Br
a: False

###

- Tested on: SNB-19 CNS
- PROCEDURE_TEXT: NCI-60 one-dose screen, 48 h (100 = growth as untreated, 0 = no growth, -100 = all killed)
- TEST_SETTINGS: 10 µM unless noted
About 83,000 compounds went through this panel and 20% of them were active in at least one assay; those are over-represented in the sample as a whole.
EXPERIMENTAL_ENDPOINT: growth (%)
Numbers only, in %.

The following compounds have reported results that may help.
>>> recorded_number("c1ccc2cc(C[n+]3ccn(CCCCCCCCCCn4cc[n+](Cc5ccc6ccccc6c5)c4)c3)ccc2c1")
22.8
>>> recorded_number("C=C1C(=O)O[C@H]2[C@H]1CC/C(COC(=O)NCc1ccc(Cn3c(=O)sn(CCCCC)c3=O)cc1)=C\\CC[C@@]1(C)O[C@@H]21")
85.9
>>> recorded_number("COCCn1cc(-c2nc(-c3cc4cccnc4[nH]3)cs2)c2cc(OC)ccc21")
61.6

q: Consider the compound O=C(OC(CO)C(=O)NC12CC3CC(CC(C3)C1)C2)c1ccc(Cl)cc1 (centres undefined) and give its measured growth.
a: 98.8
